- Test details: Humidity microbalance analysis (VTI), moisture sorption at 25° C.
- Assay type: physicochemical
- Experimental setup: 10 % residual humidity
Consider the following molecules; for each one, report its Mass uptake (% water absorbed).
Form entry: value (%) — number only.

IN: Note Mass uptake (% water absorbed) for the molecule shown: O=C([O-])C[C@H]1CC[C@H](c2ccc(-c3ccc(Nc4ccc(C(F)(F)F)nc4)cn3)cc2)CC1.[Na+] [Modification C]
OUT: 0.0

IN: Note Mass uptake (% water absorbed) for the molecule shown: O=C([O-])C[C@H]1CC[C@H](c2ccc(-c3ccc(Nc4ccc(C(F)(F)F)nc4)cn3)cc2)CC1.[Na+] [Modification O]
OUT: 0.0

IN: Note Mass uptake (% water absorbed) for the molecule shown: O=C([O-])C[C@H]1CC[C@H](c2ccc(-c3ccc(Nc4ccc(C(F)(F)F)nc4)cn3)cc2)CC1.[Na+] [Modification N]
OUT: 0.1

IN: Note Mass uptake (% water absorbed) for the molecule shown: O=C([O-])C[C@H]1CC[C@H](c2ccc(-c3ccc(Nc4ccc(C(F)(F)F)nc4)cn3)cc2)CC1.[Na+] [Modification A, reference compound]
OUT: 3.9

###

- Test details: Humidity microbalance analysis (VTI), moisture sorption at 25° C.
- Format: physicochemical
- Experimental setup: 50 % residual humidity
- Excerpt: Thus, Modification C retains a stable weight from 0% relative humidity to 80% relative humidity while Modification A loses water with decreasing humidity and gains moisture with increasing humidity. With Modification C, a re-hydration step and the possible variability in water content between batches may thus be eliminated. Modification N is particularly suitable for industrial scale-up. It is a crystalline anhydrous form. Modification O is particularly suitable for industrial scale-up. […]
Consider the following compounds; for each one, report its Mass uptake (% water absorbed).
Form entry: value (%) — number only.

IN: Note Mass uptake (% water absorbed) for the compound shown: O=C([O-])C[C@H]1CC[C@H](c2ccc(-c3ccc(Nc4ccc(C(F)(F)F)nc4)cn3)cc2)CC1.[Na+] [Modification N]
OUT: 0.7

IN: Note Mass uptake (% water absorbed) for the compound shown: O=C([O-])C[C@H]1CC[C@H](c2ccc(-c3ccc(Nc4ccc(C(F)(F)F)nc4)cn3)cc2)CC1.[Na+] [Modification C]
OUT: 0.1

IN: Note Mass uptake (% water absorbed) for the compound shown: O=C([O-])C[C@H]1CC[C@H](c2ccc(-c3ccc(Nc4ccc(C(F)(F)F)nc4)cn3)cc2)CC1.[Na+] [Modification A, reference compound]
OUT: 12.0

IN: Note Mass uptake (% water absorbed) for the compound shown: O=C([O-])C[C@H]1CC[C@H](c2ccc(-c3ccc(Nc4ccc(C(F)(F)F)nc4)cn3)cc2)CC1.[Na+] [Modification O]
OUT: −0.5

###

Consider the following compounds; for each one, report its Mass uptake (% water absorbed).
- Test details: Humidity microbalance analysis (VTI), moisture sorption at 25° C.
- Format: physicochemical
- Experimental setup: 70 % residual humidity
- Description: Thus, Modification C retains a stable weight from 0% relative humidity to 80% relative humidity while Modification A loses water with decreasing humidity and gains moisture with increasing humidity. With Modification C, a re-hydration step and the possible variability in water content between batches may thus be eliminated. Modification N is particularly suitable for industrial scale-up. It is a crystalline anhydrous form. Modification O is particularly suitable for industrial scale-up. […]
Form entry: value (%) — number only.

IN: Note Mass uptake (% water absorbed) for the compound shown: O=C([O-])C[C@H]1CC[C@H](c2ccc(-c3ccc(Nc4ccc(C(F)(F)F)nc4)cn3)cc2)CC1.[Na+] [Modification O]
OUT: −0.5

IN: Note Mass uptake (% water absorbed) for the compound shown: O=C([O-])C[C@H]1CC[C@H](c2ccc(-c3ccc(Nc4ccc(C(F)(F)F)nc4)cn3)cc2)CC1.[Na+] [Modification C]
OUT: 0.4

IN: Note Mass uptake (% water absorbed) for the compound shown: O=C([O-])C[C@H]1CC[C@H](c2ccc(-c3ccc(Nc4ccc(C(F)(F)F)nc4)cn3)cc2)CC1.[Na+] [Modification N]
OUT: 1.0

IN: Note Mass uptake (% water absorbed) for the compound shown: O=C([O-])C[C@H]1CC[C@H](c2ccc(-c3ccc(Nc4ccc(C(F)(F)F)nc4)cn3)cc2)CC1.[Na+] [Modification A, reference compound]
OUT: 17.3

###

Consider the following molecules; for each one, report its Mass uptake (% water absorbed).
- Test details: Humidity microbalance analysis (VTI), moisture sorption at 25° C.
- Type: physicochemical
- Experimental setup: 79 % residual humidity
Form entry: value (%) — number only.

IN: Note Mass uptake (% water absorbed) for the molecule shown: O=C([O-])C[C@H]1CC[C@H](c2ccc(-c3ccc(Nc4ccc(C(F)(F)F)nc4)cn3)cc2)CC1.[Na+] [Modification N]
OUT: 3.7

IN: Note Mass uptake (% water absorbed) for the molecule shown: O=C([O-])C[C@H]1CC[C@H](c2ccc(-c3ccc(Nc4ccc(C(F)(F)F)nc4)cn3)cc2)CC1.[Na+] [Modification O]
OUT: −0.4

IN: Note Mass uptake (% water absorbed) for the molecule shown: O=C([O-])C[C@H]1CC[C@H](c2ccc(-c3ccc(Nc4ccc(C(F)(F)F)nc4)cn3)cc2)CC1.[Na+] [Modification A, reference compound]
OUT: 17.5

IN: Note Mass uptake (% water absorbed) for the molecule shown: O=C([O-])C[C@H]1CC[C@H](c2ccc(-c3ccc(Nc4ccc(C(F)(F)F)nc4)cn3)cc2)CC1.[Na+] [Modification C]
OUT: 0.8

###

- Test details: Humidity microbalance analysis (VTI), moisture sorption at 25° C.
- Type: physicochemical
- Experimental setup: 90 % residual humidity
Parameter: Mass uptake (% water absorbed) (%)
Form entry: value (%) — number only.

IN: Note Mass uptake (% water absorbed) for the compound shown: O=C([O-])C[C@H]1CC[C@H](c2ccc(-c3ccc(Nc4ccc(C(F)(F)F)nc4)cn3)cc2)CC1.[Na+] [Modification C]
OUT: 12.0

IN: Note Mass uptake (% water absorbed) for the compound shown: O=C([O-])C[C@H]1CC[C@H](c2ccc(-c3ccc(Nc4ccc(C(F)(F)F)nc4)cn3)cc2)CC1.[Na+] [Modification A, reference compound]
OUT: 17.4

IN: Note Mass uptake (% water absorbed) for the compound shown: O=C([O-])C[C@H]1CC[C@H](c2ccc(-c3ccc(Nc4ccc(C(F)(F)F)nc4)cn3)cc2)CC1.[Na+] [Modification O]
OUT: 4.3

IN: Note Mass uptake (% water absorbed) for the compound shown: O=C([O-])C[C@H]1CC[C@H](c2ccc(-c3ccc(Nc4ccc(C(F)(F)F)nc4)cn3)cc2)CC1.[Na+] [Modification N]
OUT: 18.2

###

- Test details: Humidity microbalance analysis (VTI), moisture sorption at 25° C.
- Assay type: physicochemical
- Experimental setup: 60 % residual humidity
Consider the following compounds; for each one, report its Mass uptake (% water absorbed).
Form entry: value (%) — number only.

IN: Note Mass uptake (% water absorbed) for the compound shown: O=C([O-])C[C@H]1CC[C@H](c2ccc(-c3ccc(Nc4ccc(C(F)(F)F)nc4)cn3)cc2)CC1.[Na+] [Modification A, reference compound]
OUT: 12.0

IN: Note Mass uptake (% water absorbed) for the compound shown: O=C([O-])C[C@H]1CC[C@H](c2ccc(-c3ccc(Nc4ccc(C(F)(F)F)nc4)cn3)cc2)CC1.[Na+] [Modification C]
OUT: 0.2

IN: Note Mass uptake (% water absorbed) for the compound shown: O=C([O-])C[C@H]1CC[C@H](c2ccc(-c3ccc(Nc4ccc(C(F)(F)F)nc4)cn3)cc2)CC1.[Na+] [Modification N]
OUT: 0.9

IN: Note Mass uptake (% water absorbed) for the compound shown: O=C([O-])C[C@H]1CC[C@H](c2ccc(-c3ccc(Nc4ccc(C(F)(F)F)nc4)cn3)cc2)CC1.[Na+] [Modification O]
OUT: −0.5

###

- Test details: Humidity microbalance analysis (VTI), moisture sorption at 25° C.
- Assay type: physicochemical
- Experimental setup: 95 % residual humidity
Consider the following compounds; for each one, report its Mass uptake (% water absorbed).
Form entry: value (%) — number only.

IN: Note Mass uptake (% water absorbed) for the compound shown: O=C([O-])C[C@H]1CC[C@H](c2ccc(-c3ccc(Nc4ccc(C(F)(F)F)nc4)cn3)cc2)CC1.[Na+] [Modification O]
OUT: 13.3

IN: Note Mass uptake (% water absorbed) for the compound shown: O=C([O-])C[C@H]1CC[C@H](c2ccc(-c3ccc(Nc4ccc(C(F)(F)F)nc4)cn3)cc2)CC1.[Na+] [Modification A, reference compound]
OUT: 17.1

IN: Note Mass uptake (% water absorbed) for the compound shown: O=C([O-])C[C@H]1CC[C@H](c2ccc(-c3ccc(Nc4ccc(C(F)(F)F)nc4)cn3)cc2)CC1.[Na+] [Modification N]
OUT: 19.1

IN: Note Mass uptake (% water absorbed) for the compound shown: O=C([O-])C[C@H]1CC[C@H](c2ccc(-c3ccc(Nc4ccc(C(F)(F)F)nc4)cn3)cc2)CC1.[Na+] [Modification C]
OUT: 15.6
